Measured IC50 values are reported for all entries that follow.
- measured.on: S. pneumoniae FabK (Streptococcus pneumoniae, UniProt Q9FBC5)
- Sequence (Q9FBC5 1-324): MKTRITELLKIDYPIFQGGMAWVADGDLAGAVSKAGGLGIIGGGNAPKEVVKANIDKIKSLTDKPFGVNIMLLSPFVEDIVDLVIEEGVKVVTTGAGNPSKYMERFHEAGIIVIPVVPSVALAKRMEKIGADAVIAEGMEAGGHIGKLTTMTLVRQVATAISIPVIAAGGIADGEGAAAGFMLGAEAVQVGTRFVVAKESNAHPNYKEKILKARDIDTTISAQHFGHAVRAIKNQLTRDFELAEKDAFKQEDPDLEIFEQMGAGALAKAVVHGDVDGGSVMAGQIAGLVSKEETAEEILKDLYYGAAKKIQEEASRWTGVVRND
- test.method.notes: S. pneumoniae FabK enzyme assay
- Assay type: biochemical
- experimental.context: S. pneumoniae FabK; read-out: IC50 spFabK
- Procedure: S. aureus FabI and E. coli FabI enzymes were cloned, overexpressed, and purified as described previously. […] The compounds were dissolved in DMSO and evaluated in 100-μL assay mixtures containing components specific for each enzyme (see below). Reduction of the trans-2-octenoyl N-acetylcysteamine (t-o-NAC thioester) substrate analog was measured spectrophotometrically following the utilization of NADH or NADPH at 340 nm at 30°C for the linear period of the assay. […]

INSERT INTO assay_data (compound, recorded_value) VALUES
  ('C=CC(C)(C)C12C=C(OC)C(=O)N3/C(=C/c4cnc[nH]4)C(=O)N(C)C31N(OC)c1ccccc12 (centres unmarked) [Compound 5, O,N^14-dimethylmeleagrin]', '> 200 µM');

# input Looking for the measured IC50 of C=CC(C)(C)C12C=C(O)C(=O)N3/C(=C/c4cnc[nH]4)C(=O)NC31Nc1c(Br)cccc12 (centres unmarked) [Compound 7] , can you help?
# output > 200 µM
